B1: Ribonuclease, P00648 (parent)
chain: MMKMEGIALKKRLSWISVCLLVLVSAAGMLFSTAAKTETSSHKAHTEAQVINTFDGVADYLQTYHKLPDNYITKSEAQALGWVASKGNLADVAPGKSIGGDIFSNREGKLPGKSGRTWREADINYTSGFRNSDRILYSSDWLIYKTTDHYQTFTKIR

# Variants of: B1
# test.parameters: Bacillus amyloliquefaciens; pH 6.3; 25 °C; Urea; Fluorescence; MES 50 micro M; reversible: yes; structure 1BNI; whole UniProt chain shown
Where ddG of mutation (higher = less stable) equals or exceeds 2 kcal/mol, the correct label is 1.0; where it does not, the label is 0.0.

Query :: Would you say N105A shows ddG of mutation (higher = less stable) at minimum 2 kcal/mol?
Result :: 1.0

Query :: Would you say T63S Y64A shows ddG of mutation (higher = less stable) at minimum 2 kcal/mol?
Result :: 1.0

Query :: Would you say T63S shows ddG of mutation (higher = less stable) at minimum 2 kcal/mol?
Result :: 0.0

Query :: Would you say T152V shows ddG of mutation (higher = less stable) at minimum 2 kcal/mol?
Result :: 1.0

Query :: Would you say K109R shows ddG of mutation (higher = less stable) at minimum 2 kcal/mol?
Result :: 0.0
